Target: Adenosine receptor A1 (Homo sapiens, UniProt P30542)
Sequence (P30542 whole entry): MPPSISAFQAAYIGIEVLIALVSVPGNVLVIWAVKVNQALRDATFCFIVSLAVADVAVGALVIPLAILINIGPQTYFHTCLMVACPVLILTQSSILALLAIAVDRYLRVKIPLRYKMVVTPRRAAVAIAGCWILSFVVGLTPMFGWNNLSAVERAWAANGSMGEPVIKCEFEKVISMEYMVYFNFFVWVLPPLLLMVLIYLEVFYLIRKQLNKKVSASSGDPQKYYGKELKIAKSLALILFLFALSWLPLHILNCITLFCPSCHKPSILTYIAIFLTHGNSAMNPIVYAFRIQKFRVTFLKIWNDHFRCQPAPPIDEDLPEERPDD
Below are pKi values for Adenosine receptor A1 (Homo sapiens, UniProt P30542) collected from several publications.
Remember, pKi is on a log scale: it is -log10 of the molar concentration.

Consider the following illustrative entries.
CC(=O)Nc1nc2ccccc2c2cn(-c3ccc(C)cc3)nc12 6.34
Nc1nc(-c2ccccc2)nn1C(=O)c1ccco1 7.44
COc1cccc2c(C(=O)NCc3cccc4cccnc34)nc(N)nc12 8.22
CCOC(=O)c1cnc(NCc2ccc(C)cc2)n2nc(-c3ccco3)nc12 5.87
CNc1nc(-n2ccnn2)nc2c1ncn2[C@@H]1O[C@H](CO)[C@@H](O)[C@H]1O 6.00

query: For the compound shown here, COc1ccc(CNc2nc3nn(C)cc3c3nc(-c4ccco4)nn23)cc1OC , give the reported pKi.
result: 5.57

query: For the compound shown here, CCNC(=O)[C@H]1O[C@@H](n2cnc3c(NNC(=O)c4ccc(C)s4)nc(Cl)nc32)[C@H](O)[C@@H]1O , give the reported pKi.
result: 5.59

query: For the compound shown here, COC(=O)c1cnn(-c2nc(NC(C3CC3)C3CC3)c3ncn([C@H]4[C@H](O)[C@H](O)[C@@H]5C[C@@H]54)c3n2)c1 , give the reported pKi.
result: 6.14

query: For the compound shown here, CN1CCN(CC(=O)Nc2cc(-n3cccn3)nc(-n3cccn3)n2)CC1 , give the reported pKi.
result: 5.38

query: For the compound shown here, COC[C@H]1CCCN1c1cc(NC(C)=O)nc(-c2ccccn2)n1 , give the reported pKi.
result: 7.16

query: For the compound shown here, Nc1nc(-c2ccc(NC(=O)c3ccc(O)c(O)c3)cc2)cn2c(=O)n(-c3ccccc3)nc12 , give the reported pKi.
result: 6.26

query: For the compound shown here, CCc1nc2c([nH]1)c1nc(C)[nH]c1c1nc(CC)[nH]c12 , give the reported pKi.
result: 6.02

query: For the compound shown here, CCNC(=O)/N=N/Nc1nc(N)c2ncn([C@@H]3O[C@H](CO)[C@@H](O)[C@H]3O)c2n1 , give the reported pKi.
result: 7.35
